test system: Human papillomavirus type 1a protein E7 (residues 44-93); test: small molecules binding HPV E7 44-93 – biochemical, small-molecule microarray, residues 44-93, 635 nm fluorescence, primary screen (AID 1108); conditions: fluorescence 635 nm, higher = more signal;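 note: E7 fragment applied at 1 µg/mL in TBST for 1 h at 4 C; score combines spot fluorescence with its signal to noise ratio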
Note to self: values exactly at 0.8 are MET. So composite z-score at or above 0.8 is MET, below is NOT MET.

compound=C[N+](C)(C)CCCC[C@@H]1NC(=O)[C@H]2C[C@@H](C(=O)NCCCCCNC(=O)CS)[C@@H](c3cccc(OCCO)c3)N2C1=O target="Human papillomavirus type 1a protein E7 (residues 44-93)" classification="NOT MET"
compound=COCCOC(=O)N1C(=O)[C@@]2(c3cc(C#CCC(C(=O)OC)C(=O)OC)ccc31)[C@H](c1ccc(O)cc1)N1[C@H](c3ccccc3)[C@H](c3ccccc3)OC(=O)[C@H]1[C@@H]2C(=O)Nc1nc2ccccc2s1 target="Human papillomavirus type 1a protein E7 (residues 44-93)" classification=MET
compound="C=CCC(OC(C)=O)[C@@H]1[C@@H](N(Cc2cccc3ccccc23)C(=O)Cc2ccc(OC)cc2)c2cc(OCCCO)ccc2N1C(=O)Cc1ccc2ccccc2c1 (some centres not stated)" target="Human papillomavirus type 1a protein E7 (residues 44-93)" classification="NOT MET"

Answer whether composite z-score of C=CCNC(=O)[C@@H]1[C@H]2C(=O)O[C@H](c3ccccc3)[C@H](c3ccccc3)N2[C@H](c2ccc(OCCO)cc2)[C@@]12C(=O)Nc1ccc(C#CC3(O)CCCCCC3)cc12 is greater than or equal to 0.8.
MET

Another compound: COC(=O)c1cccc([C@H]2OC(=CC(=O)OC(C)C)C[C@@H](c3cccc(C(=O)OC)c3)O2)c1
MET

Entry to check: O=C1NC(=O)C2C1C=CC(C(O)c1ccc(B(O)O)cc1)N2Nc1ccc(Cl)cc1Cl (configuration not stated)
NOT MET

====

assay: forskolin-driven CRE-LacZ activity in PC12 – cell-based, CRE-LacZ reporter, forskolin-stimulated, primary screen (AID 1146); conditions: luminescence, 4.5 h, higher = more signal, called active from +8 up or from −8 down;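 note: PC12 cells with 6xCRE LacZ reporter stimulated by forskolin 10 µM; beta-galactosidase reporter signal reflecting CREB driven transcription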
property: z-score
Give bare numbers.

molecule="O=C1C2C=CC(C(O)c3ccc([N+](=O)[O-])cc3)N(Nc3ccccc3F)C2C(=O)N1c1ccccc1 (stereo not drawn)" property=z-score value=0.402

Batch: z-score for all items listed.
1. C=C(COC)C(=O)CC[C@H](OC(=O)c1cccnc1)c1ccc(OCCO)cc1
2. CC(=O)NCCCC[C@@H]1NC(=O)[C@H]2C[C@@H](C(=O)NCCCCCCNC(=O)CS)[C@@H](c3cccc(OCCO)c3)N2C1=O
3. Cc1ccc(S[C@]2(C(=O)NCC(F)(F)F)CC(=O)N(Cc3ccccc3C(F)(F)F)[C@@H]2c2ccc(CO)cc2)cc1
4. CC(C)C[C@@H]1NC(=O)[C@@]23C(=O)N[C@@H](Cc4ccccc4)C2[C@H](C)[C@@]2(C)O[C@H]2C3/C=C/C/C=C\CNC(=O)CNC1=O (stereo partly drawn)
5. NC(=O)N1C(=O)C2C(C1=O)C1C=C(CCCO)C2C(c2ccc(CN3CCCC3)cc2)N1Cc1cc2c(cc1Br)OCO2 (stereo not drawn)
6. C[N+](C)(C)CCCC[C@@H]1NC(=O)[C@H]2C[C@@H](C(=O)NCCCCCNC(=O)CS)[C@@H](c3cccc(OCCO)c3)N2C1=O
7. O=C1[C@H]2C=C(I)[C@H](C[C@@H]2OCCCCCCO)[C@@]12CO2

1: 0.755; 2: -0.78; 3: -0.163; 4: -0.767; 5: -0.274; 6: 0.487; 7: 1.77

====

biological target: Pro-neuregulin-1, membrane-bound isoform (Homo sapiens) (UniProt Q02297); assay: small molecules binding neuregulin-1 protein – biochemical, small-molecule microarray, fluorescence 635/667, psychiatric disease protein project, primary screen (AID 1075); conditions: NRG1 binding, 635 nm fluorescence, higher = more signal;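 note: score combines 667 nm spot fluorescence with signal to noise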
Sequence (Q02297 whole entry, looked up, canonical isoform): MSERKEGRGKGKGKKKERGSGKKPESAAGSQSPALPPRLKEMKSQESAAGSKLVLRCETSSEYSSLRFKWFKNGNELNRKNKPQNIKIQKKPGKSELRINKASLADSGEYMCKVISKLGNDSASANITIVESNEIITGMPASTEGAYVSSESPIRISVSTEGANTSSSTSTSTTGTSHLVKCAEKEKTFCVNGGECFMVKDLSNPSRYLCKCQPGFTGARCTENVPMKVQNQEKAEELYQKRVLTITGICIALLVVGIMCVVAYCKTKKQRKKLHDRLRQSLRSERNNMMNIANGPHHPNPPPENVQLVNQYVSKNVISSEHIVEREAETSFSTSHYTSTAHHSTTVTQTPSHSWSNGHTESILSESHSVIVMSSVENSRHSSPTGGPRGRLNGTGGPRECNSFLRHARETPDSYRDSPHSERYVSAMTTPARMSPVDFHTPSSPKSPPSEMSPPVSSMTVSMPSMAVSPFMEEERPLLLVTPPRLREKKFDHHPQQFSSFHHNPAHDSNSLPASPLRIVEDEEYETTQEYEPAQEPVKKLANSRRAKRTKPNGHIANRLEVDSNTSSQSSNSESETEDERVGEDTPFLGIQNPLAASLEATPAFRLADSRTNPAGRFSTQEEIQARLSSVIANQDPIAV
Given measured composite z-score, output satisfied if it is greater than or equal to 0.04 and not satisfied if not.

Sample answers from the record:
molecule=[N-]=[N+]=Nc1ccccc1C[C@@]1(C(=O)NCc2ccccc2)N=C(c2ccc(OCCCO)cc2)O[C@@H]1c1ccccc1N=[N+]=[N-] classification=satisfied
molecule=COCCOC(=O)N1C(=O)[C@@]2(c3cc(C#CCC(C(=O)OC)C(=O)OC)ccc31)[C@H](C(=O)Nc1nc3ccccc3s1)[C@H]1C(=O)O[C@H](c3ccccc3)[C@H](c3ccccc3)N1[C@@H]2c1ccc(OCCO)cc1 classification=satisfied
molecule=CCCN1C(=O)[C@@]2(c3ccc([N+](=O)[O-])cc3)CC(=O)N(CC34CC5CC(CC(C5)C3)C4)[C@@H]2c2ccc(CO)cc21 classification=satisfied
molecule=COc1ccc([Si](C)(C)[C@@H]2[C@@H](CC(=O)N(CCO)Cc3ccccc3)O[C@]3(C(=O)N(Cc4ccc(I)cc4)c4ccccc43)[C@H]2C)cc1 classification=satisfied
molecule=Cc1ccc(N2C(=O)c3ccccc3[C@](C)(C(=O)NCCCN(C)C)[C@@H]2c2ccc(CO)cc2)nc1 classification="not satisfied"

Now look at this one.
Form field: composite z-score at least 0.04? Entry: CC(C)(C)OC(=O)CC[C@]1(C(=O)NCC(O)CO)N=C(c2ccc(OCCCO)cc2)O[C@H]1c1ccccc1N=[N+]=[N-] (stereo partly specified)
satisfied

====

test: COS7 lysate on small-molecule microarray, probe aHis, 635 nm (AID 1123); details: COS7 cell lysate, fluorescence, higher = more signal;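 note: z-score combines 667nm fluorescence intensity with signal-to-noise per printed compound spot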
I'd be grateful if you could share measured composite z-score for these entries.
Answers are plain numbers.

molecule=CCCC=C(CCC)[C@@H](NC(=O)c1ccc(C(F)(F)F)cc1)c1ccc(C(F)(F)F)cc1 property="composite z-score" value=2.94
molecule="CC(=O)c1ccc(C(O)C2C=CC3C(=O)N(c4ccccc4)C(=O)C3N2Nc2ccc(C(C)C)cc2)cc1 (centres undefined)" property="composite z-score" value=1.97
molecule="COC(=O)C1=CC(CCCO)=CC(c2cccs2)N(Cc2cc3c(cc2Br)OCO3)C=C1C(=O)OC (centres undefined)" property="composite z-score" value=2.43

Any idea what its composite z-score is? The molecule is CCCCCCc1nc(Cc2cc(OC)c(OC)c(OC)c2)cc2c1[Si](C(C)C)(C(C)C)O[C@H]2c1ccccc1
-0.327

====

assay: probe aLAP1 signal on lysate-treated microarray – cell lysate, small-molecule microarray, COS7 lysate, primary screen (AID 1124); conditions: probe aLAP1, fluorescence, higher = more signal;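 note: lysate comes from COS7 cells expressing LAP1 and is applied at 0.3 µg/mL; score merges spot fluorescence near 667 nm with signal-to-noise over triplicate slides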
Decision: composite z-score compared against 0.2; not below it gives T, below it gives F.

molecule=C=CCOC(=O)[C@H]1[C@@H]2C(=O)O[C@@H](c3ccccc3)[C@@H](c3ccccc3)N2[C@@H](c2ccc(OCCOC(=O)[C@H]3C[C@H]4C(=O)N[C@@H](CC(C)C)C(=O)N4[C@H]3c3ccc(O)cc3)cc2)[C@]12C(=O)Nc1ccccc12 classification=T

Given the entry COC(=O)[C@@]1(Cc2ccc(F)cc2)[C@H]2c3cc(C(=O)N4CCCC4)n(CCc4ccccn4)c3C[C@H]2CN1C(=O)c1ccccc1 , answer whether its composite z-score meets or surpasses 0.2.
T

# repeat for C=C(COC)C(=O)CC[C@@H](OC(=O)c1ccccc1-c1ccccc1C(=O)O)c1ccc(OCCO)cc1
T

Similarly, C=CCNC(=O)[C@H]1[C@@H]2C(=O)O[C@@H](c3ccccc3)[C@@H](c3ccccc3)N2[C@@H](c2ccc(OCCO)cc2)[C@]12C(=O)Nc1ccc(C#CC3(O)CCCCCC3)cc12 ?
T

What do you have for CCCC=C(CCC)[C@@H](NC(=O)c1ccc(C(F)(F)F)cc1)c1ccc(C(F)(F)F)cc1 ?
F

// next record C=C(C)[C@@H]1CC=C(C(O)C2C=CC3C(=O)N(C)C(=O)C3N2Nc2ccc([N+](=O)[O-])cc2[N+](=O)[O-])CC1 (stereo partly specified)
F

====

biological target: Concanavalin-A (Canavalia ensiformis); assay: compounds binding concanavalin A lectin – biochemical, small-molecule microarray, Alexa647 label, 635 nm, artefact control for SMM control protein annotation, primary screen (AID 1127); conditions: ConA-A647 binding fluorescence, higher = more signal;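 note: z combines 667 nm emission intensity with signal-to-noise across three replicate slides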
For each record, write down the corresponding composite z-score.
Give bare numbers.

// worked examples, composite z-score included
molecule="COC(=O)C1=CC(CCCO)=CC(c2cccs2)N(Cc2cc3c(cc2Br)OCO3)C=C1C(=O)OC (configuration not stated)" value=1.21
molecule=COC(=O)[C@@]1(Cc2ccc(F)cc2)[C@H]2c3cc(C(=O)N(C)C)n(CCc4ccc(O)c(O)c4)c3C[C@H]2CN1C(=O)c1ccccc1 value=0.227
molecule="CCCCN1CC=CC23O[C@@H]4/C=C\\CCCOC(=O)C4[C@H]2C(=O)N(C(CO)C(C)C)[C@@H]3C1=O (some centres not stated)" value=-0.592
molecule="N#Cc1ccc(NN2C(C(O)C3CC=CCC3)C=CC3C(=O)N(c4ccccc4)C(=O)C32)cc1 (configuration not stated)" value=1.14
molecule=O=C1[C@@H]2[C@@H](CC(COc3ccccc3)=C([C@H](O)CCc3ccccc3)[C@@H]2CO)C(=O)N1Cc1ccccc1 value=0.929
molecule="[N-]=[N+]=Nc1ccccc1[C@@H]1OC(c2ccc(OCCCO)cc2)=N[C@]1(CCS(=O)(=O)c1ccccc1)C(=O)NCC(O)CO (some centres not stated)" value=0.998
molecule=COc1ccc(C(=O)Nc2ccc3c(c2)[C@@]2(O[C@H](CCO)[C@@H]([Si](C)(C)c4ccc(OC)cc4)[C@@H]2C)C(=O)N3Cc2ccccc2)cc1 value=0.637
molecule="CCCCC(O)C1C=CC2C(=O)N(c3ccccc3)C(=O)C2N1Nc1ccccc1 (configuration not stated)" value=0.557

Each of the following entries comes with a recorded value; kindly state composite z-score for each.
1. COC(=O)[C@@]1(Cc2ccc(F)cc2)[C@H]2c3cc(C(=O)N4CCCC4)n(Cc4cc(F)cc5c4OCOC5)c3C[C@H]2CN1C(=O)c1ccccc1
2. COc1ccc(C(=O)Nc2cccc(CN3C(=O)[C@@]4(O[C@@H](CC(=O)N5CCC[C@H]5CO)[C@H]([Si](C)(C)c5ccc(OC)cc5)[C@H]4C)c4ccccc43)c2)cc1
3. C=CC[C@@]1(C(=O)N(C)C)N=C(c2ccc(OCCCO)cc2)O[C@@H]1c1ccccc1CN=[N+]=[N-]
4. CN(C)C(=O)[C@]1(Cc2ccccc2)N=C(c2ccc(OCCCO)cc2)O[C@@H]1c1ccccc1CN=[N+]=[N-]

[1.07, 1.17, 1.12, 0.922]
